Test system: BDF1 mice, P388 leukemia ip, median survival T/C
Assay name: NCI In Vivo Anticancer Drug Screen. Data for tumor model P388 Leukemia (intraperitoneal) in B6D2F1 (BDF1) mice
Assay setup: endpoint: median survival time; dose: 100.0 mg/kg/injection; schedule: Q04DX003 (ip); vehicle: saline with Tween-80; higher = longer survival
Toxic doses and inconclusive results are not listed.
Quantity: T/C

[
  {
    "Molecule": "O=C(O)c1ccccc1C(=O)NNC(=O)c1ccccc1C(=O)O",
    "Quantity": "T/C",
    "Endpoint value": "90 % of control"
  },
  {
    "Molecule": "COc1cc([N+](=O)[O-])ccc1N",
    "Quantity": "T/C",
    "Endpoint value": "100 % of control"
  },
  {
    "Molecule": "CSc1cccc(NC(C)=O)c1",
    "Quantity": "T/C",
    "Endpoint value": "104 % of control"
  },
  {
    "Molecule": "CN(C)c1ccccc1.[C-]#[O+].[C-]#[O+].[C-]#[O+].[Cr]",
    "Quantity": "T/C",
    "Endpoint value": "91 % of control"
  },
  {
    "Molecule": "OC/C(=N/Nc1ccc2ccccc2n1)c1ccccc1",
    "Quantity": "T/C",
    "Endpoint value": "94 % of control"
  },
  {
    "Molecule": "OCCN(CCO)c1cc(O)cc(O)c1",
    "Quantity": "T/C",
    "Endpoint value": "106 % of control"
  },
  {
    "Molecule": "CCN(C(=O)c1ccc(C(=O)N(CC)c2ccccc2)cc1)c1ccccc1",
    "Quantity": "T/C",
    "Endpoint value": "100 % of control"
  },
  {
    "Molecule": "CC(=O)OCC(OC(C)=O)C(OC(C)=O)C(C#N)OC(C)=O (centres undefined)",
    "Quantity": "T/C",
    "Endpoint value": "95 % of control"
  },
  {
    "Molecule": "O=C1c2ccccc2C(=O)N1CC/C=C/c1ccc([N+](=O)[O-])cc1Cl",
    "Quantity": "T/C",
    "Endpoint value": "100 % of control"
  }
]

----------
Tested on: BDF1 mice, P388 leukemia ip, median survival T/C
Assay name: NCI In Vivo Anticancer Drug Screen. Data for tumor model P388 Leukemia (intraperitoneal) in B6D2F1 (BDF1) mice
Assay setup: endpoint: median survival time; dose: 5.0 mg/kg/injection; schedule: Q04DX003 (ip); vehicle: saline
Inconclusive results and toxic doses are left out. The calls were made as follows: active = survival T/C of 150% or more; inactive = T/C below 125% in these data.
Possible outcomes: active, inactive

[
  {
    "Input smiles": "Oc1ccc(Nc2ccnc3cc(Cl)ccc23)cc1CN(CCCl)CCCl",
    "Target entity": "BDF1 mice, P388 leukemia ip, median survival T/C",
    "Group label": "active"
  },
  {
    "Input smiles": "C=C(Cl)C(=O)OCC",
    "Target entity": "BDF1 mice, P388 leukemia ip, median survival T/C",
    "Group label": "inactive"
  },
  {
    "Input smiles": "Nc1ncc(-c2ccc(CNc3ccc(C(=O)NC(CC(=O)O)CC(=O)O)cc3)cc2)c(N)n1",
    "Target entity": "BDF1 mice, P388 leukemia ip, median survival T/C",
    "Group label": "inactive"
  },
  {
    "Input smiles": "CC(=O)n1cc(F)c(=O)[nH]c1=O",
    "Target entity": "BDF1 mice, P388 leukemia ip, median survival T/C",
    "Group label": "inactive"
  }
]
